Target: T1, ST2 on the effector cells (KU812, KU812/NF-κB-1#, HUVEC, HMC-1) (human, UniProt Q01638 19-556)
T1 sequence (looked up): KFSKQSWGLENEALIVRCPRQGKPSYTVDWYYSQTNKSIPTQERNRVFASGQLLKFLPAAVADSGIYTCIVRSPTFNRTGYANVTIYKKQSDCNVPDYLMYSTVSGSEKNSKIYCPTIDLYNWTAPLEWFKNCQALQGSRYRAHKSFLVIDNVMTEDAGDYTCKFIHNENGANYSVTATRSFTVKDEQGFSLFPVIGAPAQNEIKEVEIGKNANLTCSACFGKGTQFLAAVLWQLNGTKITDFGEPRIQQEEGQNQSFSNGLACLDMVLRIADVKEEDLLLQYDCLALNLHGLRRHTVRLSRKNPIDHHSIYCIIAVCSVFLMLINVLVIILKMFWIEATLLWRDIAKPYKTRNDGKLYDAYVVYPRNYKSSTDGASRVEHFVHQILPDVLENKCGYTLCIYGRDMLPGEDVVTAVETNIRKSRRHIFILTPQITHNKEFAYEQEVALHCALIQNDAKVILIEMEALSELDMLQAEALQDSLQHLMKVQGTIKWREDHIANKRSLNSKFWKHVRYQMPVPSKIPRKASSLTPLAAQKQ
Assay: cell-based or functional assay
Parameter: Relative activity, KU812-IL5 production by reduced IL33. Scope: all listed entries.
Answer by giving the amount and then stating its unit.

The following binders have reported results that may help.
5888-153-H3L2 (antibody, human IgG4 S228P, kappa, V domains shown, Humanized antibody) VH: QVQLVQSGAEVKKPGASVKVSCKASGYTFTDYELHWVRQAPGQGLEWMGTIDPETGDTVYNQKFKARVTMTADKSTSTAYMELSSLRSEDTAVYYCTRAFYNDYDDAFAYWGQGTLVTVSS VL: EIVMTQSPATLSLSPGERATLSCSVSSSVSYMHWYQQKPGQAPRRLIYDTSKLASGIPARFSGSGSGTDYTLTISSLEPEDAAVYYCQQWNTSPLTFGGGTKVEIKR : 281%
5888-153-H0L1 (antibody, human IgG4 S228P, kappa, V domains shown, Humanized antibody) VH: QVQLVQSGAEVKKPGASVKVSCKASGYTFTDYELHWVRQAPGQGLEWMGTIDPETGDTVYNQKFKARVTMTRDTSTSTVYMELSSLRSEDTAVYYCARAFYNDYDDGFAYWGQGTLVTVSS VL: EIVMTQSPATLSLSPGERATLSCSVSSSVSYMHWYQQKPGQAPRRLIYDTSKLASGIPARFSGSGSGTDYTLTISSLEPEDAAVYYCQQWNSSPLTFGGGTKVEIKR : 377%

Here is the next item to consider.
# query: Relative activity, KU812-IL5 production by reduced IL33 of entry Control antibody CNTO7160 (antibody, human IgG4 S228P, kappa, V domains shown, Known anti-ST2 control antibody) VH: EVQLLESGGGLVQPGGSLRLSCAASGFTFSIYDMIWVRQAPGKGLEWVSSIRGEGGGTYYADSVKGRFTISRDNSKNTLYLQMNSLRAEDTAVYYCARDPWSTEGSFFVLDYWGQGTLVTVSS VL: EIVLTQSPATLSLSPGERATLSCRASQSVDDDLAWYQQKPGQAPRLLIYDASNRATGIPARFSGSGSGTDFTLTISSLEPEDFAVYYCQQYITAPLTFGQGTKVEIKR
100%
